Assay: Tissue distribution after i.g. or i.v. linezolid in control, CCl4-induced and 5/6 Nx rats
Type: in vivo, rat
Details: rat, liver, oral, 63 mg/kg, i.g. 63 mg/kg linezolid; 0.5 h; control rats; read-out: Tissue/plasma concentration ratio, Liver
Endpoint Label: Kp at 0.5 h

chemical_structure=CC(=O)NC[C@H]1CN(c2ccc(N3CCOCC3)c(F)c2)C(=O)O1 endpoint_label="Kp at 0.5 h" number=1.64

* * *

Test: Tissue distribution after i.g. or i.v. linezolid in control, CCl4-induced and 5/6 Nx rats
Assay type: in vivo, rat
Details: rat, heart, iv, 25 mg/kg, i.v. 25 mg/kg linezolid; 0.5 h; 5/6 Nx rats; read-out: Tissue/plasma concentration ratio, Heart
Endpoint Label: Kp at 0.5 h

chemical_structure=CC(=O)NC[C@H]1CN(c2ccc(N3CCOCC3)c(F)c2)C(=O)O1 number=0.85

* * *

Test: Tissue distribution after i.g. or i.v. linezolid in control, CCl4-induced and 5/6 Nx rats
Assay type: in vivo, rat
Conditions: rat, small intestine, oral, 63 mg/kg, i.g. 63 mg/kg linezolid; 1 h; control rats; read-out: Tissue/plasma concentration ratio, Small intestine
Endpoint Label: Kp at 1 h

chemical_structure=CC(=O)NC[C@H]1CN(c2ccc(N3CCOCC3)c(F)c2)C(=O)O1 endpoint_label="Kp at 1 h" number=0.33

* * *

Test: Tissue distribution after i.g. or i.v. linezolid in control, CCl4-induced and 5/6 Nx rats
Format: in vivo, rat
Conditions: rat, small intestine, oral, 63 mg/kg, i.g. 63 mg/kg linezolid; 0.5 h; control rats; read-out: Tissue/plasma concentration ratio, Small intestine
Endpoint Label: Kp at 0.5 h

compound="CC(=O)NC[C@H]1CN(c2ccc(N3CCOCC3)c(F)c2)C(=O)O1 [Linezolid]" endpoint_label="Kp at 0.5 h" result=0.35

* * *

Assay: Tissue distribution after i.g. or i.v. linezolid in control, CCl4-induced and 5/6 Nx rats
Format: in vivo, rat
Conditions: rat, brain, oral, 63 mg/kg, i.g. 63 mg/kg linezolid; 1 h; 5/6 Nx rats; read-out: Tissue/plasma concentration ratio, Brain
Endpoint Label: Kp at 1 h

compound="CC(=O)NC[C@H]1CN(c2ccc(N3CCOCC3)c(F)c2)C(=O)O1 [Linezolid]" result=0.16

* * *

Assay: Tissue distribution after i.g. or i.v. linezolid in control, CCl4-induced and 5/6 Nx rats
Type: in vivo, rat
Details: rat, kidney, oral, 63 mg/kg, i.g. 63 mg/kg linezolid; 4 h; control rats; read-out: Tissue/plasma concentration ratio, Kidney
Endpoint Label: Kp at 4 h

molecule="CC(=O)NC[C@H]1CN(c2ccc(N3CCOCC3)c(F)c2)C(=O)O1 [Linezolid]" number=0.75

* * *

Experiment: Tissue distribution after i.g. or i.v. linezolid in control, CCl4-induced and 5/6 Nx rats
Type: in vivo, rat
Conditions: rat, brain, oral, 63 mg/kg, i.g. 63 mg/kg linezolid; 0.5 h; control rats; read-out: Tissue/plasma concentration ratio, Brain
Endpoint Label: Kp at 0.5 h

chemical_structure=CC(=O)NC[C@H]1CN(c2ccc(N3CCOCC3)c(F)c2)C(=O)O1 endpoint_label="Kp at 0.5 h" result=0.15

* * *

Assay: Tissue distribution after i.g. or i.v. linezolid in control, CCl4-induced and 5/6 Nx rats
Type: in vivo, rat
Conditions: rat, kidney, iv, 25 mg/kg, i.v. 25 mg/kg linezolid; 1 h; control rats; read-out: Tissue/plasma concentration ratio, Kidney
Endpoint Label: Kp at 1 h

chemical_structure=CC(=O)NC[C@H]1CN(c2ccc(N3CCOCC3)c(F)c2)C(=O)O1 endpoint_label="Kp at 1 h" number=0.62
